Listed below: hERG current change (%, negative = inhibition) at 10uM values for each entry.
- testTarget: human ether-à-go-go-related gene (hERG) potassium channel (human, UniProt Q12809)
- Sequence (Q12809 whole entry, looked up): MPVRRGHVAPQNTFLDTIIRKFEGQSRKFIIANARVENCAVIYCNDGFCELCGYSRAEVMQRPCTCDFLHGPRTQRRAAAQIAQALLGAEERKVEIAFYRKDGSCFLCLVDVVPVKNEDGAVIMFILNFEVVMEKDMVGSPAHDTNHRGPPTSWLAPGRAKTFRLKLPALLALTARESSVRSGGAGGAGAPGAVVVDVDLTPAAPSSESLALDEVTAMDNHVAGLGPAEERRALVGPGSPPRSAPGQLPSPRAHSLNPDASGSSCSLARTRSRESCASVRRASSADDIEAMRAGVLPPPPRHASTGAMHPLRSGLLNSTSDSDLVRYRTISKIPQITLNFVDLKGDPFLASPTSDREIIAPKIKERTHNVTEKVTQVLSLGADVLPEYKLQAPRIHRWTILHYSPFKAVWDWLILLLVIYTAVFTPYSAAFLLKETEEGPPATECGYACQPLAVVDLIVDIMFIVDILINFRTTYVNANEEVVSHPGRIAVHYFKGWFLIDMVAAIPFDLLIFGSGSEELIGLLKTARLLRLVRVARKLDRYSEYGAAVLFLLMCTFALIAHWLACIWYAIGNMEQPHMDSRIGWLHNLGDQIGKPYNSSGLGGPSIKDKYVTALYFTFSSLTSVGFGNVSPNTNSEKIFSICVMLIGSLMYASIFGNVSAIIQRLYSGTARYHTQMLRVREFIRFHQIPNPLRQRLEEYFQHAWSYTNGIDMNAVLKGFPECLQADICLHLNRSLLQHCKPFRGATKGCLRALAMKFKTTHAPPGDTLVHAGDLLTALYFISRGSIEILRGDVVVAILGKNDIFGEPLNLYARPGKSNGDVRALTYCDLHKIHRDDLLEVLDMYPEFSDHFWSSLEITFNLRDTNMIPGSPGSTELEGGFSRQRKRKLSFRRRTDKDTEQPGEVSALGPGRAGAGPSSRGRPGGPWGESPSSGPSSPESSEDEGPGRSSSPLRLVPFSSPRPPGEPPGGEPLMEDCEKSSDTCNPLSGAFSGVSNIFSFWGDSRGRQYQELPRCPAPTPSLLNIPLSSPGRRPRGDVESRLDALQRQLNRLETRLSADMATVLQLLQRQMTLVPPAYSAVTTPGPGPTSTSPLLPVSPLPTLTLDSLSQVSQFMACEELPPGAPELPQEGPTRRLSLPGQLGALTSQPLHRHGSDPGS
- methodNotes: primary screen, population patch clamp on CHO cells stably expressing hERG; higher = less effect of the substance
In all, about 310,000 compounds went through this assay and about 14,000 (4.5%) showed an effect of 50% or more. The effect is printed as a negative number. This is one part of a sample in which strong results are shown more often than they occur.
Express your answer in %, writing the number without its unit.

Sample records with hERG current change (%, negative = inhibition) at 10uM:
Q) Under human ether-à-go-go-related gene (hERG) potassium channel (human, UniProt Q12809): hERG current change (%, negative = inhibition) at 10uM value of O=C(NCc1ccccc1F)C1CC(=O)N(c2ccc3c(c2)OCCO3)C1 (stereo not shown) ?
A) -2.83

Q) Similarly, Cc1ccc(-c2nc3nc4ccccc4nc3n2Cc2ccco2)cc1 ?
A) -18.7

Q) Similarly, CC(C)(C)c1ccccc1NC(=O)COC(=O)CN1C(=O)NC2(CCCC2)C1=O ?
A) 15.8

Others:
Q) Under human ether-à-go-go-related gene (hERG) potassium channel (human, UniProt Q12809): hERG current change (%, negative = inhibition) at 10uM value of CCC(=O)NCCNc1nc2cc(C)cc(C)c2cc1C#N ?
A) 58.1

Q) Similarly, Cc1cc(C)c2cc(C#N)c(NCCOC(=O)c3ccccc3C)nc2c1 ?
A) -54.8

Q) Similarly, CCCCCn1c(-c2ccco2)nc2nc3ccccc3nc21 ?
A) -67.5

* * *

- testTarget: human ether-à-go-go-related gene (hERG) potassium channel (human, UniProt Q12809)
- methodNotes: primary screen, population patch clamp on CHO cells stably expressing hERG; higher = less effect of the substance
About 14,000 (4.5%) of roughly 310,000 compounds showed an effect of 50% or more. The effect is printed as a negative number. The sample holds strong results, similar compounds and a random draw of the others, so the mix is not that of the screen.
Listed below: hERG current change (%, negative = inhibition) at 10uM values for each entry.
Express your answer in %, writing the number without its unit.

Sample records with hERG current change (%, negative = inhibition) at 10uM:
Q) Under human ether-à-go-go-related gene (hERG) potassium channel (human, UniProt Q12809): hERG current change (%, negative = inhibition) at 10uM value of COc1cc(/C=C/c2cccc[n+]2C)ccc1OCC(=O)Nc1ccccc1C.[I-] ?
A) 8.13

Q) Similarly, O=C(CN1CCN(Cc2ccccc2)CC1)Nc1ccc(N2CCOCC2)cc1 ?
A) -3.67

Q) Similarly, O=C(CN1CCN(Cc2ccccc2)CC1)Nc1ccccc1 ?
A) -26.9

Q) Similarly, O=C(CN1CCN(Cc2ccccc2)CC1)Nc1ccc(Cl)cn1 ?
A) -74.5

Please turn your attention to the following entry.
Q) Under human ether-à-go-go-related gene (hERG) potassium channel (human, UniProt Q12809): hERG current change (%, negative = inhibition) at 10uM value of O=C(CN1CCN(Cc2ccccc2)CC1)Nc1ccc(Br)cc1 ?
A) -71.9

* * *

- testTarget: human ether-à-go-go-related gene (hERG) potassium channel (human, UniProt Q12809);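 note: peak tail current of the secondary pulse compared with the same well before compound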
- methodNotes: primary screen, population patch clamp on CHO cells stably expressing hERG; higher = less effect of the substance
About 14,000 (4.5%) of roughly 310,000 compounds showed an effect of 50% or more. The effect is printed as a negative number. Shown is part of a subset that was picked to be rich in strong results.
Decision: hERG current change (%, negative = inhibition) at 10uM compared against -20%; not below it gives y, below it gives n.

Example entries begin here.
Q) Is hERG current change (%, negative = inhibition) at 10uM for O=C(c1ccccc1CCc1ccccc1)N1CCCC1 at or above -20%?
A) y

Q) Similarly, NC(=O)CCN(C1CCCCC1)S(=O)(=O)c1cccc2nsnc12 ?
A) y

Q) Similarly, COc1ccccc1CCN=C(N)NS(=O)(=O)c1ccc(C)c(C)c1 ?
A) y

Q) Similarly, O=C(Nc1nc2c(F)cccc2s1)C1CC1 ?
A) y

Q) Similarly, Cc1ccc(C(=O)NCCN2CCOCC2)c(Cl)c1 ?
A) y

Others:
Q) Is hERG current change (%, negative = inhibition) at 10uM for Cc1ccc(CNC(=O)CCC2CCCN(Cc3cccc4cccnc34)C2)o1 (stereo not drawn) at or above -20%?
A) n

* * *

- testTarget: human ether-à-go-go-related gene (hERG) potassium channel (human);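 note: peak tail current of the secondary pulse compared with the same well before compound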
- methodNotes: primary screen, population patch clamp on CHO cells stably expressing hERG; higher = less effect of the substance
In all, about 310,000 compounds went through this assay and about 14,000 (4.5%) showed an effect of 50% or more. Effects have a minus sign here. This excerpt belongs to a sample that is enriched for strong results.
Listed below: hERG current change (%, negative = inhibition) at 10uM values for each entry.
Express your answer in %, writing the number without its unit.

Q) Requested read-out: hERG current change (%, negative = inhibition) at 10uM. Entry: Cc1cc(O)c(C2=Nc3ccccc3SC(c3ccc(Cl)cc3)C2)c(=O)o1 (centres unmarked)
A) 19.4

Q) Similarly, CN1CCN(C2=Nc3ccccc3Oc3ccc(Cl)cc32)CC1.O=C(O)CCC(=O)O ?
A) -6.25

Q) Similarly, COc1ccc(CCNC(=O)C2CCCN(S(=O)(=O)c3cccc4nonc34)C2)cc1OC (centres unmarked) ?
A) 10.5

Q) Similarly, CC(=O)O[C@H]1C(=O)[C@@]2(C)C([C@H](OC(=O)c3ccccc3)[C@]3(O)C[C@H](OC(=O)[C@H](O)[C@@H](NC(=O)Cc4ccccc4)c4ccccc4)C(C)=C1C3(C)C)[C@]1(OC(C)=O)CO[C@@H]1C[C@@H]2O (some centres unmarked) ?
A) 16.6

Q) Similarly, COc1ccc2c(c1)nc(SCC(C)O)n2C (centres unmarked) ?
A) 18

Q) Similarly, COC(=O)CSc1[nH]c2ccc(Br)cc2c1[N+](=O)[O-] ?
A) 16.7

Q) Similarly, Cc1ccc(Cl)cc1NC(=O)CC1NC2CCCCC2NC1=O (centres unmarked) ?
A) 17.6

Q) Similarly, O=S(=O)(Cc1ccccc1)Nc1ccc(F)cc1 ?
A) 7.05

Q) Similarly, CC(C)Cc1nnc(NC(=O)c2ccc(N3CCCC3=O)cc2)s1 ?
A) 2.3

Q) Similarly, Cc1ccc(SC/C(O)=C(\C#N)c2nc3ccccc3s2)cc1 ?
A) 29.9

Others:
Q) Requested read-out: hERG current change (%, negative = inhibition) at 10uM. Entry: COc1ccc(CNS(=O)(=O)c2ccc(-c3ccc(=O)[nH]n3)s2)cc1OC
A) -29.5

Q) Similarly, O=c1[nH]c2ccc(Cl)cc2c(O)c1Cc1ccccc1 ?
A) 12.6

Q) Similarly, O=C(CCCN1C(=O)/C(=C/c2ccccc2Cl)SC1=S)NNC(=O)c1ccncc1 ?
A) 2.34

Q) Similarly, O=C(NC1CCCCC1)C(c1ccccc1)N1CCOCC1 (centres unmarked) ?
A) 9.63

Q) Similarly, COc1ccc2c(c1)nc(SCC(=O)C(C)(C)C)n2C ?
A) -2.82

Q) Similarly, Cc1cc(=S)c2cccc(C)c2[nH]1 ?
A) 9.4

* * *

- testTarget: human ether-à-go-go-related gene (hERG) potassium channel (human);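 note: peak tail current of the secondary pulse compared with the same well before compound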
- methodNotes: primary screen, population patch clamp on CHO cells stably expressing hERG; higher = less effect of the substance
In all, about 310,000 compounds went through this assay and about 14,000 (4.5%) showed an effect of 50% or more. Effects have a minus sign here. This is one part of a sample in which strong results are shown more often than they occur.
parameterMeasured: hERG current change (%, negative = inhibition) at 10uM (%)
Express your answer in %, writing the number without its unit.

Q) Requested read-out: hERG current change (%, negative = inhibition) at 10uM. Entry: O=C(/C=C/c1ccccc1)NC(=S)NNC(=O)Cc1cccs1
A) 22.5

Q) Similarly, CCOC(=O)C1(CCc2ccccc2)CCN(Cc2cc(OC)c(OC)cc2OC)CC1 ?
A) -77.4

Q) Similarly, CC(C)C(c1nnnn1Cc1ccc2c(c1)OCO2)N1CCN(c2ccccc2)CC1 (stereo not drawn) ?
A) 23.1

* * *

- testTarget: human ether-à-go-go-related gene (hERG) potassium channel (human);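 note: peak tail current of the secondary pulse compared with the same well before compound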
- methodNotes: primary screen, population patch clamp on CHO cells stably expressing hERG; higher = less effect of the substance
Out of some 310,000 compounds screened, about 14,000 (4.5%) showed an effect of 50% or more. Effects have a minus sign here. For the sample, strong results were picked, then their nearest neighbours and some compounds at random.
parameterMeasured: hERG current change (%, negative = inhibition) at 10uM (%)
Express your answer in %, writing the number without its unit.

Q) Requested read-out: hERG current change (%, negative = inhibition) at 10uM. Entry: Cn1c(=O)c2c(nc(N/N=C/c3ccncc3)n2Cc2ccccc2)n(C)c1=O
A) -28.8

Q) Similarly, COc1ccc(CCC(C)Nc2ccc(F)cc2)cc1 (stereo not shown) ?
A) -3.78

Q) Similarly, COc1ccc(C(CCNCc2ccccc2F)c2ccc(F)cc2)cc1 (stereo not shown) ?
A) -75.5

Q) Similarly, COc1ccc(CNCCC(c2ccc(F)cc2)c2ccc(OC)cc2)cc1 (stereo not shown) ?
A) -82.3

Q) Similarly, COc1ccc(C(CCNCc2ccccc2)c2ccc(F)cc2)cc1 (stereo not shown) ?
A) -66.7

Q) Similarly, COc1ccc(CNC(=O)CNC(C)c2ccc(F)cc2)cc1.O=C(O)C(=O)O (stereo not shown) ?
A) 5.06

Q) Similarly, COc1ccc(C(CCNCc2ccc(F)cc2)c2ccc(F)cc2)cc1 (stereo not shown) ?
A) -64.6

Q) Similarly, CC1CN(C(=O)CCC(=O)NC2CCCCC2)c2ccccc2S1 (stereo not shown) ?
A) -19.5

Q) Similarly, COc1ccccc1CNCCc1ccc(F)cc1.O=C(O)C(=O)O ?
A) -33.8

Q) Similarly, COc1ccc(NC(=O)CC(c2ccc(F)cc2)c2ccc(OC)cc2)cc1 (stereo not shown) ?
A) 23
